Would you kindly list inhibition at 0.75 h, 0.3 µM for each of these molecules?
- Target Of Assay: CYP1B1 (Homo sapiens)
- Sequence (Q16678 whole entry): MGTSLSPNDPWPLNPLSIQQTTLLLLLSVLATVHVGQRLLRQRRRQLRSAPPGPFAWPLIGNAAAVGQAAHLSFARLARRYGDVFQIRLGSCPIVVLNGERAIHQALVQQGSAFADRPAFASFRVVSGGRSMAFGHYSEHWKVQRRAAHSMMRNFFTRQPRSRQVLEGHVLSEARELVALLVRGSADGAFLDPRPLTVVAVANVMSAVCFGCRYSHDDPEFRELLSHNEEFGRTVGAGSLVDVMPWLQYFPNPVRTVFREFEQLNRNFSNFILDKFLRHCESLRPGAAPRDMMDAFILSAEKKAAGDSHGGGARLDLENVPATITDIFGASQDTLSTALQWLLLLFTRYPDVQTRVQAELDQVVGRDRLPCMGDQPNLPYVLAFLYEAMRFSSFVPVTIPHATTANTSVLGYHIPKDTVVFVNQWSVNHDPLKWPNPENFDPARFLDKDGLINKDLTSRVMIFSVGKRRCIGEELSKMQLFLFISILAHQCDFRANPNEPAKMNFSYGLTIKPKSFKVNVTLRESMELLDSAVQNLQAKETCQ
- Protocol Summary: Inhibition of recombinant human CYP1B1 at 0.3 uM incubated for 45 mins using 7-ethyl-O-resorufin substrate in presence of NADPH regenerating system by fluorescence based ethoxyresorufin-O-deethylase assay
- Measurement Context: recombinant human CYP1B1, probe 7-ethyl-O-resorufin (7-ethoxyresorufin)
I only need the number, in %, no unit after it.

## Input Read off the recorded inhibition at 0.75 h, 0.3 µM for "CSc1ccc2c(c1)CC[C@@H]1[C@@H]2CC[C@]2(C)[C@@H](O)CC[C@@H]12"
## Output 5

## Input Read off the recorded inhibition at 0.75 h, 0.3 µM for "COc1ccc(-c2cc3c(cc2O)CC[C@@H]2[C@@H]3CC[C@]3(C)[C@@H](O)CC[C@@H]23)cc1"
## Output 97

## Input Read off the recorded inhibition at 0.75 h, 0.3 µM for "C#C[C@]1(O)CC[C@H]2[C@@H]3CCc4cc(O)c(-c5ccc(OC)cc5)cc4[C@H]3CC[C@@]21C"
## Output 58

## Input Read off the recorded inhibition at 0.75 h, 0.3 µM for "COc1cccc(-c2cc3c(cc2O)CC[C@@H]2[C@@H]3CC[C@]3(C)C(=O)CC[C@@H]23)c1"
## Output 48

## Input Read off the recorded inhibition at 0.75 h, 0.3 µM for C[S+]([O-])c1ccc2c(c1)CC[C@@H]1[C@@H]2CC[C@]2(C)[C@@H](O)CC[C@@H]12 (stereo not given in full)
## Output 10

## Input Read off the recorded inhibition at 0.75 h, 0.3 µM for "C[C@]12CC[C@@H]3c4cc(-c5ccc(F)c(F)c5)c(O)cc4CC[C@H]3[C@@H]1CC[C@@H]2O"
## Output 92

## Input Read off the recorded inhibition at 0.75 h, 0.3 µM for "C[C@]12CC[C@@H]3c4cc(-c5cccc(O)c5)c(O)cc4CC[C@H]3[C@@H]1CC[C@@H]2O"
## Output 96

## Input Read off the recorded inhibition at 0.75 h, 0.3 µM for "C[C@]12CC[C@@H]3c4ccc(SCc5cccnc5)cc4CC[C@H]3[C@@H]1CCC2=O"
## Output 48

## Input Read off the recorded inhibition at 0.75 h, 0.3 µM for "C[C@]12CC[C@@H]3c4cc(-c5ccc(Cl)cc5)c(O)cc4CC[C@H]3[C@@H]1CC[C@@H]2O"
## Output 96

## Input Read off the recorded inhibition at 0.75 h, 0.3 µM for "COc1ccc(-c2cc3c(cc2OC)CC[C@@H]2[C@@H]3CC[C@]3(C)[C@@H](OC)CC[C@@H]23)cc1"
## Output 11

## Input Read off the recorded inhibition at 0.75 h, 0.3 µM for "C[C@]12CC[C@@H]3c4cc(-c5cccc(Cl)c5)c(O)cc4CC[C@H]3[C@@H]1CCC2=O"
## Output 74

## Input Read off the recorded inhibition at 0.75 h, 0.3 µM for "C[C@]12CC[C@@H]3c4cc(-c5ccc(O)cc5)c(O)cc4CC[C@H]3[C@@H]1CCC2=O"
## Output 19

## Input Read off the recorded inhibition at 0.75 h, 0.3 µM for "C[C@]12CC[C@@H]3c4cc(-c5ccc(Cl)cc5)c(O)cc4CC[C@H]3[C@@H]1CCC2=O"
## Output 79

## Input Read off the recorded inhibition at 0.75 h, 0.3 µM for "C[C@]12CC[C@@H]3c4cc(-c5ccc(F)cc5)c(O)cc4CC[C@H]3[C@@H]1CC[C@@H]2O"
## Output 91

## Input Read off the recorded inhibition at 0.75 h, 0.3 µM for "C[C@]12CC[C@@H]3c4cc(-c5cccc(F)c5)c(O)cc4CC[C@H]3[C@@H]1CCC2=O"
## Output 67
